biological target: CaAbp1-D1; experiment: SPOT peptide array binding signal intensity (averaged, normalized) (arbitrary units (background-subtracted, floor 0; scale differs between SH3 domains)); higher = stronger binding of the SH3 domain to the peptide
METRIC NAME: SPOT peptide array binding signal intensity
Numbers only.

LASNSPPVYPKRIRH
93

Okay, here is my list. What is SPOT peptide array binding signal intensity for each of these?
1. RVRKTHVPASKRPSG
2. DAPASKPSVPPRNYF

Reply text:
[919, 17.5]

Reference source for all entries: the supplement of paper PMC4466140
